Assay: PK of compound of Formula (Ia) after single subcutaneous dose of solution formulations in Wistar Han rats
Format: in vivo
Details: male, Wistar Han, rat, plasma, sc, 50 mg/kg, Wistar Han rats, SC 50 mg/kg, 400 mg/mL solution Y (water, PEG 300), 2688 h, Mean n = 4
measurement-name: concentration at 2688 h (nM)
Field: numeric (nM). Do not append units.

Reported concentration at 2688 h of CC(C)(C#Cc1ccc(-c2ccc(Cl)c3c(NS(C)(=O)=O)nn(CC(F)(F)F)c23)c([C@H](Cc2cc(F)cc(F)c2)NC(=O)Cn2nc(C(F)(F)F)c3c2C(F)(F)[C@@H]2C[C@H]32)n1)S(C)(=O)=O [compound of Formula (Ia)] : 119

---

Assay: PK of compound of Formula (Ia) after single subcutaneous dose of solution formulations in Wistar Han rats
Assay type: in vivo
Details: male, Wistar Han, rat, plasma, sc, 50 mg/kg, Wistar Han rats, SC 50 mg/kg, 400 mg/mL solution W (5.00% ethanol, 1.57% poloxamer 188), 24.0 h, Mean n = 3
measurement-name: concentration at 24 h (nM)
Report the figure in nM without appending any unit label.

// concentration at 24 h value for "CC(C)(C#Cc1ccc(-c2ccc(Cl)c3c(NS(C)(=O)=O)nn(CC(F)(F)F)c23)c([C@H](Cc2cc(F)cc(F)c2)NC(=O)Cn2nc(C(F)(F)F)c3c2C(F)(F)[C@@H]2C[C@H]32)n1)S(C)(=O)=O" : 120

---

Assay: PK of compound of Formula (Ia) after single subcutaneous dose of solution formulations in Wistar Han rats
Format: in vivo
Details: male, Wistar Han, rat, plasma, sc, 50 mg/kg, Wistar Han rats, SC 50 mg/kg, 400 mg/mL solution AA (6.25% poloxamer 188), 2688 h, Mean n = 4
measurement-name: concentration at 2688 h (nM)
Numeric only. Scale: nM

get_value(item= CC(C)(C#Cc1ccc(-c2ccc(Cl)c3c(NS(C)(=O)=O)nn(CC(F)(F)F)c23)c([C@H](Cc2cc(F)cc(F)c2)NC(=O)Cn2nc(C(F)(F)F)c3c2C(F)(F)[C@@H]2C[C@H]32)n1)S(C)(=O)=O [compound of Formula (Ia)] , readout=concentration at 2688 h) returns 74.6

---

Test: PK of compound of Formula (Ia) after single subcutaneous dose of solution formulations in Wistar Han rats
Assay type: in vivo
Conditions: male, Wistar Han, rat, plasma, sc, 50 mg/kg, mean ± SD, n = 5 rats; SC 50 mg/kg; solution U, 500 mg/mL; read-out: AUC0-168 h
measurement-name: AUC(0-t) (µM·h)
Record the value in µM·h, omitting the unit from your answer.

Data point: CC(C)(C#Cc1ccc(-c2ccc(Cl)c3c(NS(C)(=O)=O)nn(CC(F)(F)F)c23)c([C@H](Cc2cc(F)cc(F)c2)NC(=O)Cn2nc(C(F)(F)F)c3c2C(F)(F)[C@@H]2C[C@H]32)n1)S(C)(=O)=O [compound of Formula (Ia)] ; AUC(0-t) = 29.8

---

Assay: PK of compound of Formula (Ia) after single subcutaneous dose of solution formulations in beagle dogs
Type: in vivo
Conditions: male, beagle, dog, plasma, sc, 12 mg/kg, 72.0 h; mean, n = 3 dogs; SC 12 mg/kg; solution U, 500 mg/mL
measurement-name: concentration at 72 h (nM)
// note: answer is a bare numeric in nM

So for "CC(C)(C#Cc1ccc(-c2ccc(Cl)c3c(NS(C)(=O)=O)nn(CC(F)(F)F)c23)c([C@H](Cc2cc(F)cc(F)c2)NC(=O)Cn2nc(C(F)(F)F)c3c2C(F)(F)[C@@H]2C[C@H]32)n1)S(C)(=O)=O" , the logged concentration at 72 h turned out to be 58.6

Ref: patent US11807625B2
